In this section, each of the molecules is paired with its reported pEC50.
- tested system: DcpS (Homo sapiens)
- Construct: His tag; made in house; host or cells: E. coli BL21(DE3) RIL
- Sequence (Q96C86 whole entry): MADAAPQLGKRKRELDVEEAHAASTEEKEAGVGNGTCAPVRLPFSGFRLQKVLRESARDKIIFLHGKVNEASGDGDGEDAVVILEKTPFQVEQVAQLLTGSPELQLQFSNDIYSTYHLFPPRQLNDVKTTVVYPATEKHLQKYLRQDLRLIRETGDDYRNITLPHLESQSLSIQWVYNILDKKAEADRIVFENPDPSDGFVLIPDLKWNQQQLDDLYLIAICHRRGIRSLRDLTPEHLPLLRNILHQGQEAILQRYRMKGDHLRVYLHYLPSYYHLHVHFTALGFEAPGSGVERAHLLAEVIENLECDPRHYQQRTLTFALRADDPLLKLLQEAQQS
- experiment: FA competition assay for DcpS
- Format: binding
- stated conditions: 2g:DcpS system; 2 nM 2g and 25 nM DcpS
# pEC50 = -log10(concentration in molar units)

Use these answered entries as a reference point.
[[record]]
record_smiles = "C[n+]1cn([C@@H]2O[C@H](COP(=O)([O-])NP(=O)(O)OP(=O)(O)OC[C@H]3O[C@@H](n4cnc5c(=O)[nH]c(N)nc54)[C@H](O)[C@@H]3O)[C@@H](O)[C@H]2O)c2nc(N)[nH]c(=O)c21.N.N"
observed_value = 7.94

[[record]]
record_smiles = "Cn1c[n+]([C@@H]2O[C@H](COP(=O)(O)OP(=O)([O-])O)[C@@H](O)[C@H]2O)c2nc(N)[nH]c(=O)c21"
observed_value = 7.79


Consider now this further molecule.
Query: // query pEC50 value for entry `Cn1c[n+]([C@@H]2O[C@H](COP(=O)(O)O)[C@@H](O)[C@H]2O)c2nc(N)[nH]c(=O)c21`
Reply: 6.95
